The reported measurements were obtained from patent US20230406860A1.

The following compounds are listed with their measured log10 IC50 values.
measured target: GDP-bound KRAS protein (aa 1-169), containing both G12C and C118A amino acid substitutions (Homo sapiens, UniProt P01116, C118A/G12C)
Sequence (P01116 1-169 isoform P01116-2 G12C/C118A): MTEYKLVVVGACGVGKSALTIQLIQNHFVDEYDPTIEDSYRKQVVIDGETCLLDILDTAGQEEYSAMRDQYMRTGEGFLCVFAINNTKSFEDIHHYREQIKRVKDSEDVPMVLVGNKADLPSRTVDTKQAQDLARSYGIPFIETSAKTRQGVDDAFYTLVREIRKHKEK
run description: Coupled nucleotide exchange assay (SOS-mediated, AlphaScreen)
Type: biochemical
test parameters: 2 h compound pre-incubation; read-out: Avg 2 h Coupled exchange IC50
measured property: log10 IC50 (log10 of the value in nM)

• C=CC(=O)N1CC2(CCN(c3nc(N[C@H](CC(=O)NC)CC(C)C)c4c(n3)[C@H](C)CCC4)C2)C1 = 3.04
• C=CC(=O)N1CC2(CCN(c3nc4c(c(N[C@H](CC5=NC(C)(C)C(=O)N5)CC(C)C)n3)CCCC4)C2)C1 = 3.59
• C=CC(=O)N1CC2(CCN(c3nc(N[C@H](CC(=O)NC)CC(C)C)c4ncccc4n3)C2)C1 = 2.87
• C=CC(=O)N1CC2(CCN(c3nc(N[C@H](CC(=O)NC)CC(C)C)c4ccc(-c5nccs5)cc4n3)C2)C1 = 1.00
• C=CC(=O)N1CC2(CCN(c3nc4c(c(N[C@H](Cc5noc(C)n5)CC(C)C)n3)CCC(C)(C)C4)C2)C1 = 2.58
• C=CC(=O)N1CC2(C1)CN(c1nc(N[C@H](CC(=O)NC)CC(C)C)c3ccccc3n1)CC2(F)F = 2.52
• C=CC(=O)N1CC2(CCN(c3nc4c(c(N[C@H](Cc5nc(C)no5)CC(C)C)n3)CCC(C)(C)C4)C2)C1 = 2.84
• C=CC(=O)N1CC2(CCN(c3nc4c(c(N[C@H](Cc5nnc[nH]5)CC(C)C)n3)CCCC4)C2)C1 = 3.62
• C=CC(=O)N1CC2(CCN(c3nc4c(c(N[C@@H](CC(C)C)C(=O)NC)n3)CCCC4)C2)C1 = 3.92
• C=CC(=O)N1CC2(CCN(c3nc(N[C@H](CC(=O)NC)CC(C)C)c4c(n3)[C@@H](C)CCC4)C2)C1 = 3.65

###

measured target: GDP-bound KRAS protein (aa 1-169), containing both G12C and C118A amino acid substitutions (Homo sapiens, UniProt P01116, C118A/G12C)
run description: Coupled nucleotide exchange assay (SOS-mediated, AlphaScreen)
Type: biochemical
test parameters: 2 h compound pre-incubation; read-out: Avg 2 h Coupled exchange IC50
pIC50: −log10 of the molar value.
Please use condition met whenever pIC50 is not below 7, and condition not met whenever it is.

• C=CC(=O)N1CC2(CCN(c3nc(N[C@H](CC(=O)NC)CC(C)C)c4nn(C)cc4n3)C2)C1 = condition not met
• C=CC(=O)N1CC2(CCN(c3nc4c(c(N[C@H](Cc5cc(C)on5)CC(C)C)n3)CCC(C)(C)C4)C2)C1 = condition met
• C=CC(=O)N1CC2(CCN(c3nc4c(c(N[C@H](CC(=O)NC)Cc5ccccc5)n3)CCC(C)(C)C4)C2)C1 = condition not met
• C=CC(=O)N1CC2(CCN(c3nc(N[C@H](CC(=O)NC)CC(C)C)c4ncc(C)cc4n3)C2)C1 = condition not met
• C=CC(=O)N1CC2(CCN(c3nc(N[C@H](CC(=O)NC)CC(C)C)c4cc(C)ccc4n3)C2)C1 = condition not met
• C=CC(=O)N1CC2(CCN(c3nc4c(c(N[C@H](Cc5ncc[nH]5)CC(C)C)n3)CCC(C)(C)C4)C2)C1 = condition met
• C=CC(=O)N1CC2(CCN(c3nc4c(c(N[C@H](CC(=O)NC)CC(C)C)n3)CCC(C(F)(F)F)C4)C2)C1 (stereo partly drawn) = condition met
